Tested on: LYN
Details: concentration: 1 μM, replicates: in singlicate; n = 1;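 note: KINOMEscan kinase panel screen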
PARAMETER: %Inh

# example entries with known answers
{"COMPOUND": "CCn1c(-c2nonc2N)nc2c(C#CC(C)(C)O)ncc(OCCCCN)c21.O=C(O)C(F)(F)F.O=C(O)C(F)(F)F", "REPORTED": "0%"}
{"COMPOUND": "CN(c1ccc(NC(=O)Nc2cc(C(F)(F)F)ccc2F)cc1)c1ccnc(Nc2ccc(S(N)(=O)=O)cc2)n1", "REPORTED": "96.4%"}
{"COMPOUND": "O=C(Nc1cccc(-c2nn3ccccc3c2-c2ccnc(Nc3cccc(C(F)(F)F)c3)n2)c1)c1c(F)cccc1F", "REPORTED": "72%"}
{"COMPOUND": "Cc1cccc(Nc2nc(N[C@H]3CCNC3)ncc2C(N)=O)c1.Cl", "REPORTED": "26%"}
{"COMPOUND": "O=C(Nc1n[nH]c2cc(-c3ccoc3)ccc12)C1CC1", "REPORTED": "11%"}
{"COMPOUND": "Cc1occc1-c1ncc(OC[C@@H](N)Cc2c[nH]c3ccccc23)cc1-c1ccc2[nH]nc(C)c2c1.O=C(O)C(F)(F)F", "REPORTED": "39%"}

QUERY: Name the recorded %Inh for Cl.Cl.NCC(NCc1ccc(-c2ccnc3[nH]ccc23)s1)c1ccccc1 (stereo not shown) .
RESULT: 0%

QUERY: Any idea what %Inh was measured for Cn1cc(-c2[nH]c3cc(NC(=O)[C@H](N)C4CCCCC4)cc4c3c2C=NNC4=O)cn1 ?
RESULT: 76%

QUERY: Query (compound): Cc1ccc(S(=O)(=O)Nc2ccc(Nc3nccc(Nc4cccc5[nH]ncc45)n3)cc2)cc1 ; field requested: %Inh
RESULT: 0%

QUERY: Name the reported %Inh value associated with the compound COc1cccc(C(=O)Nc2cccc(Oc3ccc4nc(NC(=O)C5CC5)cn4n3)c2)c1
RESULT: 92.9%

QUERY: Sample Cn1cc(-c2ccc3c(c2)CCN3C(=O)Cc2cccc(F)c2)c2c(N)ncnc21 — what was its %Inh?
RESULT: 0%

QUERY: So what's the measured %Inh for this one? O=C(O)C(F)(F)F.O=C(O)C(F)(F)F.O=c1[nH]ccc2nc(N[C@@H]3CCCNC3)nc(Nc3ccc(S(=O)(=O)N4CCOCC4)cc3)c12
RESULT: 73%

QUERY: Report %Inh for Nc1n[nH]c2cnc(-c3ccccc3)cc12 please.
RESULT: 3%

QUERY: Consider the compound COc1cc(Nc2nccc(N3CCC(NC(=O)c4cc5ccccc5s4)C3)n2)cc(OC)c1OC (stereo not shown) and give its measured %Inh.
RESULT: 31%

QUERY: # query: %Inh of entry c1ccc(-c2n[nH]cc2Nc2ccnc3ccccc23)nc1
RESULT: 0%

QUERY: Dear colleague, I am looking for the recorded %Inh of the following compound: Cc1ccc(C)c(NC(=O)NC2CCN(c3ccnc(Nc4ccc(F)cc4)n3)C2)c1 (stereo not shown)
RESULT: 4%

###

Tested on: IKK-alpha
Construct: gene CHUK
Details: concentration: 1 μM, replicates: in singlicate; n = 1
PARAMETER: %Inh
Write the figure, then the unit, nothing else.

QUERY: Data request, read-out %Inh, for Cc1ccc(F)c(C(=O)Nc2cccc(-c3nn4ccccc4c3-c3ccnc(Nc4cccc(F)c4)n3)c2)c1F [GSK361061]
RESULT: 0%

QUERY: Query: %Inh; subject: COc1cccc(-c2ccc3c(NC(=O)C4CC4)n[nH]c3n2)c1 [SB-710903]
RESULT: 50%

QUERY: What value of %Inh has been reported for the following molecule? Cc1ccc(C(=O)Nc2ccc(Nc3ccnc4cc(-c5nccs5)ccc34)cc2O)cc1.Cl [GW494702]
RESULT: 20%

QUERY: // %Inh lookup, key: Cl.NC(=O)c1cccc(Nc2nccc(Nc3ccc(Oc4c(Cl)cccc4Cl)c(Cl)c3)n2)c1 [GW659009]
RESULT: 0%

QUERY: # query: %Inh of entry CCn1c(-c2nonc2N)nc2c(C#CC(C)(C)O)ncc(OCCCCN)c21.O=C(O)C(F)(F)F.O=C(O)C(F)(F)F [GSK507274]
RESULT: 24%

QUERY: Which %Inh value belongs to Nc1ncnc2c1nc(-c1ccccc1)n2-c1ccccc1 [SKF-97293] ?
RESULT: 50%

###

This listing pairs compounds with measured %Inh.
Tested on: FER
Conditions: concentration: 1 μM, replicates: in singlicate; n = 1
Answer in %, number only, no unit symbol.

Example results:
{"COMPOUND": "Cl.c1ccc(-c2ccc3c(Nc4ccc5[nH]ncc5c4)ccnc3c2)nc1 [GW440137]", "TARGET_DESC": "FER", "PARAMETER": "%Inh", "REPORTED": 15}
{"COMPOUND": "NCCCC(NC(=O)c1cc(Br)c(-c2ccnc3[nH]ccc23)s1)c1ccccc1.O=C(O)C(F)(F)F.O=C(O)C(F)(F)F (stereo not drawn) [GSK1287544]", "TARGET_DESC": "FER", "PARAMETER": "%Inh", "REPORTED": 0}
{"COMPOUND": "COC(=O)Nc1nc2ccc(Oc3ccc(NC(=O)Nc4cc(C(F)(F)F)ccc4F)cc3)cc2n1C.Cl [GW692089]", "TARGET_DESC": "FER", "PARAMETER": "%Inh", "REPORTED": 21}
{"COMPOUND": "CC(=O)N1CCN(c2ccc(Nc3nccc(-c4sc(C(C)C)nc4-c4cccc(NS(=O)(=O)c5cccc(Cl)c5)c4)n3)cn2)CC1 [GSK1660437]", "TARGET_DESC": "FER", "PARAMETER": "%Inh", "REPORTED": 35}
{"COMPOUND": "COc1cccc(C(=O)Nc2cccc(Oc3ccc4nc(NC(=O)C5CC5)cn4n3)c2)c1", "TARGET_DESC": "FER", "PARAMETER": "%Inh", "REPORTED": 0}

QUERY: Please look up its %Inh: COc1cccc(NC(=O)NC2CCN(c3ccnc(Nc4cc(OC)c(OC)c(OC)c4)n3)C2)c1 (stereo not drawn) [GSK1379763]
RESULT: 0

QUERY: # lookup: %Inh of Cc1cccc(NC(=O)Nc2ccc(Oc3ncnc4ccn(C)c34)cc2)c1
RESULT: 0

###

Test system: GCN2(Kin.Dom.2,S808G)
Construct: gene EIF2AK4
Settings: concentration: 1 μM, replicates: in singlicate; n = 1
PARAMETER: %Inh
Please state the value followed by its unit.

{"COMPOUND": "COc1cc2c(cc1OCCN1CCNCC1)ncc1c3ccc(C#N)cc3[nH]c21", "%Inh": "92.5%"}

QUERY: Entry under review: Cl.NC(=O)c1cccc(Nc2nccc(Nc3ccc(Oc4c(Cl)cccc4Cl)c(Cl)c3)n2)c1 . Reported %Inh?
RESULT: 0%

###

Tested on: PIK3CG
Conditions: concentration: 1 μM, replicates: in singlicate; n = 1
Consider the following molecules and their measured %Inh readings.
// note: answer is a bare numeric in %

QUERY: Find %Inh (PIK3CG) for the entry CC(=O)N1CCN(c2ccc(Nc3nccc(-c4sc(C(C)C)nc4-c4cccc(NS(=O)(=O)c5cccc(Cl)c5)c4)n3)cn2)CC1
RESULT: 0

QUERY: Find the measured %Inh: item COC(=O)Nc1nc2cc(Oc3ccc(NC(=O)Nc4cc(C(F)(F)F)ccc4F)cn3)ccc2[nH]1.Cl.Cl , target or system PIK3CG.
RESULT: 0

QUERY: Look up %Inh with PIK3CG for this molecule: C[C@@H]1CC[C@@H](C(=O)Nc2ccccc2)CN1c1cc(-c2ccc3c(N)n[nH]c3c2)nc(N)n1
RESULT: 2

QUERY: Lookup: %Inh / PIK3CG / COc1ccc(CNC(=O)NC2CCN(c3ccnc(Nc4ccc(F)cc4)n3)CC2)cc1
RESULT: 0

###

System: AKT3
Conditions: concentration: 1 μM, replicates: in singlicate; n = 1
# %Inh annotations
I'd appreciate it if you wrote the number followed by its unit.

// solved cases for %Inh follow
{"COMPOUND": "Clc1ccc(-c2nn3ncccc3c2-c2ccnc(Nc3ccc4c(c3)OCCO4)n2)cc1 [GW829116]", "%Inh": "0%"}
{"COMPOUND": "CC(C)(C)c1ccc2nccc(Nc3cccc(O)c3)c2c1 [GW856795]", "%Inh": "0%"}

QUERY: Give AKT3 %Inh for COc1cccc(C(=O)Nc2cccc(Oc3ccc4nc(NC(=O)C5CC5)cn4n3)c2)c1
RESULT: 3%

QUERY: // lookup %Inh | system=AKT3 | key= O=C(Nc1n[nH]c2nc(-c3ccc(O)cc3)ccc12)C1CC1 [SB-710363]
RESULT: 61%

QUERY: Query the reported %Inh for AKT3; item: O=C(Nc1ccccc1F)NC1CCN(c2ccnc(Nc3ccc(F)cc3)n2)CC1 [GSK1379800]
RESULT: 0%

QUERY: Report %Inh for O=C(Nc1cccc(-c2nn3ccccc3c2-c2ccnc(Nc3cccc(F)c3)n2)c1)c1c(F)ccc(F)c1Cl [GSK357952] tested on AKT3.
RESULT: 0%

QUERY: Kindly state the measured %Inh obtained for O=c1[nH]cc(-c2ccc(N3CCOCC3)cc2)c2sc(-c3cn[nH]c3)cc12 [GSK2276055] with AKT3.
RESULT: 0%

QUERY: Notebook entry, AKT3 assay: %Inh of CNC(=O)c1ccccc1Nc1nc(Nc2ccc(N3CCOCC3)cc2)ncc1Cl.Cl [GSK1576028] = ?
RESULT: 0%

QUERY: Recall the recorded %Inh for Cl.Cl.NCC(C(=O)Nc1cc(Br)c(-c2ccnc3[nH]ccc23)s1)c1ccccc1 (stereo not shown) [GSK1269851] with AKT3 and state it.
RESULT: 66%

QUERY: Return %Inh measured with AKT3 given this compound: CCn1c(-c2nonc2N)nc2c(C#CC(C)(C)O)nc(OC[C@H](N)c3ccccc3)cc21 [GSK943949]
RESULT: 95.8%

QUERY: # query: %Inh | item Nc1ncnc2c1nc(-c1ccccc1)n2-c1ccccc1 [SKF-97293] | system: AKT3
RESULT: 16%

QUERY: Value wanted: %Inh (AKT3) of entry CCS(=O)(=O)c1ccc(OC)c(Nc2nccc(-c3c(-c4cccc(NC(=O)c5c(F)cccc5F)c4)nn4ncccc34)n2)c1 [GSK326180]
RESULT: 0%

QUERY: Param readout= %Inh; system= AKT3; entry= CCc1ccc(-c2ccc3c(c2)-c2c(cnn2C)S(=O)(=O)N3C)cc1 ; returns value.
RESULT: 0%

QUERY: Lab request: please report %Inh under test system AKT3 for COCCOCCOc1cc2ncc3c4ccc(C#N)cc4[nH]c3c2cc1OC
RESULT: 0%

QUERY: I'm curious: which %Inh was measured for Cc1ccc(F)c(C(=O)Nc2cccc(-c3nn4ccccc4c3-c3ccnc(Nc4cccc(F)c4)n3)c2)c1F [GSK361061] tested on AKT3?
RESULT: 0%

QUERY: Look up %Inh with AKT3 for this compound: Cc1ccc(S(=O)(=O)Nc2ccc(Nc3nccc(Nc4cccc5[nH]ncc45)n3)cc2)cc1 [GSK581271]
RESULT: 0%

QUERY: Could you share what %Inh was measured for CCCCc1nn2ncccc2c1-c1ccnc(Nc2ccc(N3CCN(C)CC3)cc2)n1 [GW684941] , tested on AKT3?
RESULT: 0%

QUERY: Short answer please: %Inh, AKT3, entry Cl.Cl.NCC(NCc1ccc(-c2ccnc3[nH]ccc23)s1)c1ccccc1 (stereo not shown) [GSK1321565]
RESULT: 71%

QUERY: Recall the recorded %Inh for COc1ccc(Nc2nccc(NCCNC(=O)c3cc4ccccc4s3)n2)cc1 [GSK1379896] with AKT3 and state it.
RESULT: 0%

Sourced from paper PMC5540273
